melting point values, listed per item

Solved entries (count: 2):
input: I'd like to know its melting point. The molecule in question is Cc1[nH]c2ccc(OC(C)C(C)N3CCCC3)cc2c1C(=O)OCc1ccccc1 (stereo not drawn) [Example 70]
output: 94 to 98 °C

input: I'd like to know its melting point. The molecule in question is Cc1[nH]c2ccc(OCCN3CCC(c4ccccc4)C3)cc2c1C(=O)OCc1ccccc1.Cl (stereo not drawn) [Example 5]
output: 118 to 121 °C

Next:
input: I'd like to know its melting point. The molecule in question is Cc1[nH]c2ccc(CCN3CCN(C)CC3)cc2c1C(=O)OCc1ccccc1 [Example 57]
output: 167 to 168 °C

input: I'd like to know its melting point. The molecule in question is Cc1[nH]c2ccc(OCCN3CCCCCC3)cc2c1C(=O)OCc1ccccc1 [Example 11]
output: 141 to 142 °C

input: I'd like to know its melting point. The molecule in question is Cc1[nH]c2ccc(OCCCCN3CCCC3)cc2c1C(=O)OCc1ccccc1 [Example 10]
output: 152 to 155 °C

input: I'd like to know its melting point. The molecule in question is CCN(CC)CCOc1ccc2c(c1)c(C(=O)OCc1ccccc1)c(C)n2C [Example 8]
output: 73 to 74 °C

input: I'd like to know its melting point. The molecule in question is CCCN(CCC)CCOc1ccc2[nH]c(C)c(C(=O)OCc3ccccc3)c2c1 [Example 18]
output: 123 to 125 °C

input: I'd like to know its melting point. The molecule in question is Cc1[nH]c2ccc(CN)cc2c1C(=O)OCc1ccccc1.Cl
output: 260 to 261 °C

input: I'd like to know its melting point. The molecule in question is Cc1[nH]c2ccc(OCCN3CCOCC3)cc2c1C(=O)OC(C)c1ccccc1.Cl (stereo not drawn)
output: 45 to 55 °C

----------
measurementKind: melting point

Solved entries (count: 2):
input: I'd like to know its melting point. The compound in question is CCN(CC)CCOc1ccc2c(c1)c(C(=O)OCc1ccccc1)c(C)n2Cc1ccccc1 [Example 7]
output: 74 to 76 °C

input: I'd like to know its melting point. The compound in question is Cc1[nH]c2ccc(OCCN3CCCCC3)cc2c1C(=O)OCc1ccccc1 [Example 12]
output: 140 to 141 °C

Next:
input: I'd like to know its melting point. The compound in question is CCN(CC)Cc1ccc2[nH]c(C)c(C(=O)OCc3ccccc3)c2c1 [Example 64]
output: 106 to 108 °C

input: I'd like to know its melting point. The compound in question is Cc1[nH]c2ccc(CCN3CCCC3)cc2c1C(=O)OCc1ccccc1.Cl [Example 56]
output: 76 to 78 °C

input: I'd like to know its melting point. The compound in question is CCN(CC)CCc1ccc2[nH]c(C)c(C(=O)O[C@@H](C)c3ccccc3)c2c1.Cl
output: 95 to 97 °C

input: I'd like to know its melting point. The compound in question is Cc1[nH]c2ccc(CCN(CC(C)C)CC(C)C)cc2c1C(=O)OCc1ccccc1 [Example 60]
output: 134 to 135 °C

----------
melting point values, listed per item

Solved entries (count: 5):
input: I'd like to know its melting point. The compound in question is Cc1[nH]c2ccc(OCCN(C(C)C)C(C)C)cc2c1C(=O)OCc1ccccc1 [Example 6]
output: 121 to 123 °C

input: I'd like to know its melting point. The compound in question is CCN(CC)CCc1ccc2[nH]c(C)c(C(=O)OCc3ccccc3)c2c1.Cl [Example 72]
output: 130 to 134 °C

input: I'd like to know its melting point. The compound in question is Cc1[nH]c2ccc(OCCN3CCC(C)C3)cc2c1C(=O)OCc1ccccc1 (centres unmarked) [Example 4]
output: 121 to 122 °C

input: I'd like to know its melting point. The compound in question is CCN(CC)CCOc1ccc2[nH]c(C)c(C(=O)OCc3ccccc3)c2c1 [Example 13]
output: 125 to 126 °C

input: I'd like to know its melting point. The compound in question is Cc1[nH]c2ccc(CCN(C)C3CCOCC3)cc2c1C(=O)OCc1ccccc1 [Example 62]
output: 109 to 111 °C

Next:
input: I'd like to know its melting point. The compound in question is Cc1[nH]c2ccc(OCCN(C)C)cc2c1C(=O)O[C@@H](C)c1ccccc1 [Example 66]
output: 135 to 140 °C

input: I'd like to know its melting point. The compound in question is Cc1[nH]c2ccc(CCNC3CCCCC3)cc2c1C(=O)OCc1ccccc1 [Example 71]
output: 97 to 100 °C

input: I'd like to know its melting point. The compound in question is CNCCc1ccc2[nH]c(C)c(C(=O)OCc3ccccc3)c2c1 [Example 61]
output: 65 to 68 °C

----------
Parameter 'readout' = pIC50; parameter 'system' = CCR-5 (Homo sapiens).
Sequence (P51681 whole entry): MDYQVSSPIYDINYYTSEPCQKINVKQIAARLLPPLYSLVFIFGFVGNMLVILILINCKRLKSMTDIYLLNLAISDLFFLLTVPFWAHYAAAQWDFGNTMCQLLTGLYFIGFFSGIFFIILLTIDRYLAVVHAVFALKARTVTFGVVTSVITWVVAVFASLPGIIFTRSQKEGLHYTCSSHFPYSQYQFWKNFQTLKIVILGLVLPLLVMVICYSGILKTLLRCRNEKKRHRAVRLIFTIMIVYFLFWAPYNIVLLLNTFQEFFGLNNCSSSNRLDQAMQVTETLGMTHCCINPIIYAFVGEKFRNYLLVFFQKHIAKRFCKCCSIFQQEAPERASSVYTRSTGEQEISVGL
pIC50: −log10 of the molar value.
measurementKind: pIC50

[P] CCN(CC)CCc1ccc2[nH]c(C)c(C(=O)OCc3ccccc3)c2c1.Cl [Example 72, hydrochloride]
[Q] Cc1[nH]c2ccc(OCCN3CCCC3)cc2c1C(=O)OCc1ccccc1
input: Could you determine which record has the numerically smaller pIC50? Candidates: P and Q Answer with the label corresponding to your selection.
output: Q
(Q: 4.69, P: 5.71)

----------
measurementKind: melting point

input: I'd like to know its melting point. The compound in question is Cc1[nH]c2ccc(OCCN3CCN(C(=O)OC(C)(C)C)CC3)cc2c1C(=O)OCc1ccccc1
output: 136 to 137 °C

Let us examine a further case.
input: I'd like to know its melting point. The compound in question is Cc1[nH]c2ccc(CCN3CCCCC3)cc2c1C(=O)OCc1ccccc1
output: 159 to 161 °C

----------
Where a name gives a salt, the structure may show the parent alone.
measurementKind: melting point

input: I'd like to know its melting point. The molecule in question is Cc1[nH]c2ccc(OCCN3CCCC3)cc2c1C(=O)OCc1ccccc1
output: 110 to 116 °C

input: I'd like to know its melting point. The molecule in question is Cc1[nH]c2ccc(OCCN3CC(C)(C)C(C)(C)C3)cc2c1C(=O)OCc1ccccc1
output: 181 to 182 °C

input: I'd like to know its melting point. The molecule in question is Cc1[nH]c2ccc(OCCN3CCN(C)CC3)cc2c1C(=O)OCc1ccccc1
output: 143 to 145 °C

Next:
input: I'd like to know its melting point. The molecule in question is Cc1[nH]c2ccc(OCCN3CC[C@H](CO)C3)cc2c1C(=O)OCc1ccccc1
output: 126 to 127 °C

input: I'd like to know its melting point. The molecule in question is CCC(Oc1ccc2[nH]c(C)c(C(=O)OCc3ccccc3)c2c1)C(=O)N(CC)CC (stereo not shown)
output: 129 to 131 °C

input: I'd like to know its melting point. The molecule in question is Cc1[nH]c2ccc(OCCN3CCCC3c3ccccc3)cc2c1C(=O)OCc1ccccc1 (stereo not shown)
output: 141 to 142 °C

input: I'd like to know its melting point. The molecule in question is Cc1[nH]c2ccc(OCCN3CCNCC3)cc2c1C(=O)OCc1ccccc1 (as salt: hydrochloride)
output: 225 to 229 °C (dec.)

input: I'd like to know its melting point. The molecule in question is Cc1[nH]c2ccc(OCCN3CCCC3)cc2c1C(=O)OC(C)c1ccccc1.Cl (stereo not shown)
output: 75 to 80 °C

input: I'd like to know its melting point. The molecule in question is Cc1[nH]c2ccc(OCCN3CCCC3c3cccnc3)cc2c1C(=O)OCc1ccccc1 (stereo not shown)
output: 126 to 127 °C

input: I'd like to know its melting point. The molecule in question is Cc1[nH]c2ccc(CCN(C)C3CCCCC3)cc2c1C(=O)OCc1ccccc1
output: 122 to 124 °C
